Experiment: NCI Yeast Anticancer Drug Screen. Data for the cln2 rad14 strain (AID 165);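 note: 0% = growth equal to vehicle treated cultures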
Conditions: S. cerevisiae cln2 rad14 strain, at 5.0 µM (retest, dose inferred, filed as 0.5), active compounds read high
About 79,000 compounds went through this panel and 15% of them were active in at least one assay; those are over-represented in the sample as a whole.
For each record, write down the corresponding growth inhibition.
Kindly answer with a numeric value in %, unit omitted.

Name the recorded growth inhibition of the compound listed here: `CCC1(C)C(C#N)(C#N)C1(C#N)C#N` -42

# return recorded growth inhibition for input `ICCCCCCCCCC[n+]1ccc2ccccc2c1` 42

Look up and report measured growth inhibition for this entry: `COc1ccc(/C=C/c2cc(OC)c(OC)c(OC)c2)cc1O[Si](C)(C)C(C)(C)C` 1

Give growth inhibition for the following compound: `CN=C1NS(=O)(=O)c2ccccc21` 0

In one line, give reported growth inhibition of the entry `CC1(C)S[C@@H]2[C@H](N3C(=O)c4ccccc4C3=O)CN2[C@H]1NC(=O)N[C@@H]1N2C[C@@H](N3C(=O)c4ccccc4C3=O)[C@H]2SC1(C)C` . -6

###

Can you tell me growth inhibition for the items I'm about to list?
Experiment: NCI Yeast Anticancer Drug Screen. Data for the mlh1 rad18 strain (AID 175)
Conditions: S. cerevisiae mlh1 rad18 strain growth inhibition; at 5.0 µM (retest, dose inferred, filed as 0.5); active compounds read high
This is part of a sample that, as a whole, favours compounds with a hit. Of some 79,000 tested, about 15% had one in any assay.
// units = %; emit number, no label

For the molecule C/C=C/C(=O)NCC(C(C)C)/[N+]([O-])=N/O (configuration not stated) , report growth inhibition. 97

Give the reported value of growth inhibition for this record: CC(CN(C)C)C(=O)/C=C/c1ccc(C(C)C)cc1 (configuration not stated) -1

Give growth inhibition for the following molecule: Oc1cc2c(cc1C(c1ccc(F)cc1)N1CCCCC1)OCO2 (configuration not stated) -1

Please report the measured growth inhibition for `OC1CCN(c2c3ccccc3nc3ccccc23)CC1` 8

Identify the reported growth inhibition for the following entry. `Cc1cc(O)ccc1N=Nc1ccccc1` 1

Give a short answer stating reported growth inhibition for `Cc1c(-c2ccc(C(=N)N)cc2)oc(-c2ccc(C(=N)N)cc2)c1C` . 90

Please indicate growth inhibition recorded for `CC(=O)OC(OC(C)=O)c1ccc2ccc3cccc4ccc1c2c34` -3

###

Assay: NCI Yeast Anticancer Drug Screen. Data for the cln2 rad14 strain (AID 165);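 note: 0% = growth equal to vehicle treated cultures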
Details: S. cerevisiae cln2 rad14 strain, at 50.0 µM, active compounds read high
About 79,000 compounds went through this panel and 15% of them were active in at least one assay; those are over-represented in the sample as a whole.
recorded metric: growth inhibition (%)
Value expressed in %; do not type the unit.

Using known records, supply growth inhibition for `CCOC(=O)c1[nH]c2c([N+](=O)[O-])cccc2c1[N+](=O)[O-]` 98.6

Please look at this compound and report its growth inhibition: O=C1CCC(O)N1CN1C(=O)CCC1O (stereo not drawn) 20.8

Name the recorded growth inhibition of the compound listed here: `Cc1ccc(/C=N\NC(=S)N/N=C/c2ccc(C)cc2)cc1` 20

Name the recorded growth inhibition of the item `Cc1ccc(S(=O)(=O)NNc2nc(N(C)C)nc(N(C)C)n2)cc1` in your answer. 52.2

Give growth inhibition for the following compound: COC(=O)c1ccc2c(c1)CC1(C2)Cc2ccccc2C1=O (stereo not drawn) 57.5

For the compound CC1(c2ccccc2)OC(=O)C=CC1=O (stereo not drawn) , report growth inhibition. 99

Provide only the value of recorded growth inhibition for `c1ccc([CH2][Sn]([CH2]c2ccccc2)([S]c2cccc3cccnc23)[S]c2cccc3cccnc23)cc1` 84.5

Give me measured growth inhibition, please, for this compound: NC(CCl)=NCC1C2CC3CC(C2)CC1C3 (stereo not drawn) 84.5
